Tested on: oral carcinoma (KB) cells
experimental-protocol: MTT antiproliferative assay, KB
Assay type: cell-based, human
study-conditions: 24 h of drug exposure, mean±SD of 3 experiments
Description: In vitro antiproliferative activity against three human tumor cell lines, including gastric adenocarcinoma (SGC-7901), oral carcinoma (KB) and fibrosarcoma (HT-1080), was evaluated using the MTT assay with cis-platinum (Cpt) as the positive control. The antiproliferative activity of the synthetic compounds was measured by 3-(4, 5- dimethylthiazol-2-yl)-2, 5-diphenyltetrazolium bromide (MTT) assay. […] After 5 min, the plates were read on a plate microreader (TECANSPECTRA, Wetzlar, Germanay) at 490 nm. […]
property-measured: IC50 (µM)
Entry rule: numbers only, all in µM.

Input: For the compound N.N.[Cl][Pt][Cl] [Cpt, cis-platinum] , give its measured IC50 value.
Output: 4.7

====

System: fibrosarcoma (HT-1080) cells
experimental-protocol: MTT antiproliferative assay, HT-1080
Assay type: cell-based, human
study-conditions: 24 h of drug exposure, mean±SD of 3 experiments
property-measured: pIC50
Keep in mind that pIC50 stands for -log10 of concentration in molar terms.

Input: For the molecule N.N.[Cl][Pt][Cl] [Cpt, cis-platinum] , give its measured pIC50 value.
Output: 4.71
